B1: library; numbered along this chain (parent)
chain: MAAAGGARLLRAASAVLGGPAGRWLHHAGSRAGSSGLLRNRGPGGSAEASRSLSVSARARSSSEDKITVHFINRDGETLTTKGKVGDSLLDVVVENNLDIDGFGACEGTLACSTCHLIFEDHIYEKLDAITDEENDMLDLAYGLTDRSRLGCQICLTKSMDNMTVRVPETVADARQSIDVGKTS

variants of: B1; assay: scaled log2 fold change in cell abundance, elesclomol vs control (0 = silent mean, 1 = nonsense mean) (scaled log2 ratio); higher = higher viability under elesclomol (loss of FDX1 cuproptosis function); conditions: with HEK293T FDX1 KO; elesclomol 40 nM; glucose 10 mM; 11 days;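 further: variant abundance is its share of total variant reads in each endpoint sample, from next-generation sequencing of the integrated ORF PCR-amplified out of genomic DNA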
For each entry below, report its scaled log2 fold change value.
Numbers only.

In [3]: df
Out[3]:
   variant_key  obs_value
0        G104Q      0.891
1         R58T    -0.0694
2        R166V      0.509
3        S148Y     -0.279

Okay, here is my list. What is scaled log2 fold change for each of these?
1. I178N
2. V165D
3. L10E
4. R58W
5. E107H
6. G44S
7. G108Q

1: 0.216; 2: 0.895; 3: -0.18; 4: 0.3; 5: 0.933; 6: -0.291; 7: 0.807

Okay, here is my list. What is scaled log2 fold change for each of these?
1. M160A
2. Q176W
3. L140P
4. T145F

[-0.241, 0.328, 0.879, -0.0341]
